# SUBJECT OF TEST: Avi-KRAS G12R (1-169) GppNHp/RAF1 RBD-3xFLAG (52-151) (Homo sapiens, UniProt P01116, G12R)
# Construct: Avi-KRAS G12R (1-169)
# Sequence (P01116 1-169 isoform P01116-2 G12R): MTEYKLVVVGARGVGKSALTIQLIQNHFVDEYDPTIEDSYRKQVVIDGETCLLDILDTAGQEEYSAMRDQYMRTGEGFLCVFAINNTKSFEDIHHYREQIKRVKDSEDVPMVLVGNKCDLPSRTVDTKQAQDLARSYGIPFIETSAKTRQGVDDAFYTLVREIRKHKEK
# ASSAY EXPLANATION: Raf1-KRAS G12R-GppNHP disruption HTRF assay (Biological Example 1)
# Type: binding
# MEASUREMENT PARAMETERS: KRAS G12R, GppNHp-loaded; class symbols
# Experimental: A protein:protein interaction (PPI) Homogeneous Time Resolved Fluorescence (HTRF) assay was used to determine the effectiveness of compounds of the present disclosure in disrupting KRAS protein and effector RAF1 binding. The assay buffer included: 50 mM Tris pH 7.5, 100 mM NaCl, 5 mM MgCl2, 0.1% BSA, 0.01% Tween, and 10% DMSO. The bead buffer included: 50 mM Tris pH 7.5, and 0.01% Tween 20. […] Data was reported as percentage of activity, with DMSO as 100%. Data was plotted and analyzed using Prism 8.
Listing: IC50 of selected compounds
OBSERVED PROPERTY: IC50

CCN(c1nc(OC[C@@]23CCCN2C[C@H](F)C3)nc2c(F)c(-c3ccc(F)c4sc(N)c(C#N)c34)c(C(F)(F)F)cc12)[C@H]1CCN(C(=O)C2C[C@@H]2F)C1 (stereo partly drawn) :: < 100 nM
CCN(c1nc(OCC23CCCN2CC(F)C3)nc2c(F)c(-c3ccc(F)c4sc(N)c(C#N)c34)c(C(F)(F)F)cc12)C1CCN(C(=O)c2ccncc2)C1 (stereo not drawn) :: < 100 nM
CCN(c1nc(OC[C@@]23CCCN2C[C@H](F)C3)nc2c(F)c(-c3ccc(F)c4sc(N)c(C#N)c34)c(C(F)(F)F)cc12)[C@H]1CCN(C(=O)[C@H](C)CO)C1 (atropisomer, axis not shown) :: < 100 nM
